The following molecules are listed with their measured Avg % Deletion values.
Test system: TTR
Assay: TTR editing in primary human hepatocytes transfected with Spy Cas9 protein and sgRNAs (Table 12)
Assay type: cell-based
Condition description: primary human hepatocytes transfected with Spy Cas9 protein (RNP) and sgRNAs
Strand notation (5' to 3'): a small letter for the sugar, then the base; units joined by * are phosphorothioate-linked, units joined directly phosphodiester-linked; [ ] holds rarer units or linkages, { } end groups; capitals alone tell only the bases. m = 2'-O-methyl; r = 2'-OH (RNA)
Parameter: Avg % Deletion (%)

G000481: TTR sgRNA modified sequence, Human, SEQ ID No. 88; guide sequence of CR003345 (nucleic acid) guide: mU*mC*mU*rArGrArArCrUrUrUrGrArCrCrArUrCrArGrGrUrUrUrUrArGrAmGmCmUmAmGmAmAmAmUmAmGmCrArArGrUrUrArArArArUrArArGrGrCrUrArGrUrCrCrGrUrUrArUrCrAmAmCmUmUmGmAmAmAmAmAmGmUmGmGmCmAmCmCmGmAmGmUmCmGmGmUmGmCmU*mU*mU*mU | 19.43
G000483: TTR sgRNA modified sequence, Human, SEQ ID No. 90; guide sequence of CR005298 (nucleic acid) guide: mU*mC*mC*rArCrUrCrArUrUrCrUrUrGrGrCrArGrGrArGrUrUrUrUrArGrAmGmCmUmAmGmAmAmAmUmAmGmCrArArGrUrUrArArArArUrArArGrGrCrUrArGrUrCrCrGrUrUrArUrCrAmAmCmUmUmGmAmAmAmAmAmGmUmGmGmCmAmCmCmGmAmGmUmCmGmGmUmGmCmU*mU*mU*mU | 28.50
G000499: TTR sgRNA modified sequence, Human, SEQ ID No. 106; guide sequence of CR005303 (nucleic acid) guide: mU*mG*mA*rArUrCrCrArArGrUrGrUrCrCrUrCrUrGrArGrUrUrUrUrArGrAmGmCmUmAmGmAmAmAmUmAmGmCrArArGrUrUrArArArArUrArArGrGrCrUrArGrUrCrCrGrUrUrArUrCrAmAmCmUmUmGmAmAmAmAmAmGmUmGmGmCmAmCmCmGmAmGmUmCmGmGmUmGmCmU*mU*mU*mU | 1.17
G000486: TTR sgRNA modified sequence, Human, SEQ ID No. 93; guide sequence of CR003339 (nucleic acid) guide: mA*mC*mA*rCrArArArUrArCrCrArGrUrCrCrArGrCrArGrUrUrUrUrArGrAmGmCmUmAmGmAmAmAmUmAmGmCrArArGrUrUrArArArArUrArArGrGrCrUrArGrUrCrCrGrUrUrArUrCrAmAmCmUmUmGmAmAmAmAmAmGmUmGmGmCmAmCmCmGmAmGmUmCmGmGmUmGmCmU*mU*mU*mU | 59.93
G000498: TTR sgRNA modified sequence, Human, SEQ ID No. 105; guide sequence of CR003359 (nucleic acid) guide: mA*mG*mU*rGrArGrUrCrUrGrGrArGrArGrCrUrGrCrArGrUrUrUrUrArGrAmGmCmUmAmGmAmAmAmUmAmGmCrArArGrUrUrArArArArUrArArGrGrCrUrArGrUrCrCrGrUrUrArUrCrAmAmCmUmUmGmAmAmAmAmAmGmUmGmGmCmAmCmCmGmAmGmUmCmGmGmUmGmCmU*mU*mU*mU | 12.70
G000492: TTR sgRNA modified sequence, Human, SEQ ID No. 99; guide sequence of CR003342 (nucleic acid) guide: mC*mU*mU*rCrUrCrUrArCrArCrCrCrArGrGrGrCrArCrGrUrUrUrUrArGrAmGmCmUmAmGmAmAmAmUmAmGmCrArArGrUrUrArArArArUrArArGrGrCrUrArGrUrCrCrGrUrUrArUrCrAmAmCmUmUmGmAmAmAmAmAmGmUmGmGmCmAmCmCmGmAmGmUmCmGmGmUmGmCmU*mU*mU*mU | 3.13
G000493: TTR sgRNA modified sequence, Human, SEQ ID No. 100; guide sequence of CR003368 (nucleic acid) guide: mA*mA*mG*rUrGrCrCrUrUrCrCrArGrUrArArGrArUrUrGrUrUrUrUrArGrAmGmCmUmAmGmAmAmAmUmAmGmCrArArGrUrUrArArArArUrArArGrGrCrUrArGrUrCrCrGrUrUrArUrCrAmAmCmUmUmGmAmAmAmAmAmGmUmGmGmCmAmCmCmGmAmGmUmCmGmGmUmGmCmU*mU*mU*mU | 2.67
G000501: TTR sgRNA modified sequence, Human, SEQ ID No. 108; guide sequence of CR005300 (nucleic acid) guide: mU*mC*mA*rCrArGrArArArCrArCrUrCrArCrCrGrUrArGrUrUrUrUrArGrAmGmCmUmAmGmAmAmAmUmAmGmCrArArGrUrUrArArArArUrArArGrGrCrUrArGrUrCrCrGrUrUrArUrCrAmAmCmUmUmGmAmAmAmAmAmGmUmGmGmCmAmCmCmGmAmGmUmCmGmGmUmGmCmU*mU*mU*mU | 6.00
G000489: TTR sgRNA modified sequence, Human, SEQ ID No. 96; guide sequence of CR003344 (nucleic acid) guide: mU*mU*mU*rGrArCrCrArUrCrArGrArGrGrArCrArCrUrGrUrUrUrUrArGrAmGmCmUmAmGmAmAmAmUmAmGmCrArArGrUrUrArArArArUrArArGrGrCrUrArGrUrCrCrGrUrUrArUrCrAmAmCmUmUmGmAmAmAmAmAmGmUmGmGmCmAmCmCmGmAmGmUmCmGmGmUmGmCmU*mU*mU*mU | 9.43
G000484: TTR sgRNA modified sequence, Human, SEQ ID No. 91; guide sequence of CR003367 (nucleic acid) guide: mA*mG*mA*rCrArCrCrArArArUrCrUrUrArCrUrGrGrArGrUrUrUrUrArGrAmGmCmUmAmGmAmAmAmUmAmGmCrArArGrUrUrArArArArUrArArGrGrCrUrArGrUrCrCrGrUrUrArUrCrAmAmCmUmUmGmAmAmAmAmAmGmUmGmGmCmAmCmCmGmAmGmUmCmGmGmUmGmCmU*mU*mU*mU | 33.83
G000485: TTR sgRNA modified sequence, Human, SEQ ID No. 92; guide sequence of CR003336 (nucleic acid) guide: mC*mC*mU*rCrCrUrCrUrGrCrCrUrUrGrCrUrGrGrArCrGrUrUrUrUrArGrAmGmCmUmAmGmAmAmAmUmAmGmCrArArGrUrUrArArArArUrArArGrGrCrUrArGrUrCrCrGrUrUrArUrCrAmAmCmUmUmGmAmAmAmAmAmGmUmGmGmCmAmCmCmGmAmGmUmCmGmGmUmGmCmU*mU*mU*mU | 3.13

Each recorded value in this set is attributed to patent US11795460B2.
